Some compounds, each annotated with its measured pIC50.
Test target: MST1 (Homo sapiens (Human), UniProt Q13043)
Sequence (Q13043 whole entry): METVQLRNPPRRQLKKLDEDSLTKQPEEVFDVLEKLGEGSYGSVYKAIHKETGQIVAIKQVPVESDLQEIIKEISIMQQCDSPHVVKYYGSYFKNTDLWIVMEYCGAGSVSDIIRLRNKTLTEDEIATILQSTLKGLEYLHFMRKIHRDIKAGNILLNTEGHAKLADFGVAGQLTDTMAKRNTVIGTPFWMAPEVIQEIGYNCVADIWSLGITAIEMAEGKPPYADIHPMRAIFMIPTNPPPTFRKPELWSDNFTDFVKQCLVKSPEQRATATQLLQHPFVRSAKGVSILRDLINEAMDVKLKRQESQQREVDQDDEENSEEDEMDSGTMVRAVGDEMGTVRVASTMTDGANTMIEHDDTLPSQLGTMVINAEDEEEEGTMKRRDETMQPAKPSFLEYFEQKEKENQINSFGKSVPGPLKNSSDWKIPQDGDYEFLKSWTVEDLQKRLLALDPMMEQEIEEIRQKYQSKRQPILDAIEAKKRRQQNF
Test: MST1 biochemical LanthaScreen Eu Kinase Binding Assay
Study conditions: read-out: Kinase Binding assay-MST1 IC50
pIC50: −log10 of the molar value.

Please review the entries below; each comes with its answer.
Compound: CCOc1cc2ncc(C#N)c(Nc3cc(C)c(OCc4ncccc4C)c(C)c3)c2cc1NC(=O)CCCN(C)C [Example 32]
pIC50: > 7.00
--
Compound: CCOc1cc2ncc(C#N)c(Nc3ccc(OCc4ccc(OC)cn4)c(Cl)c3)c2cc1NC(=O)CCCN(C)C [Example 56]
pIC50: 6.00 to 7.00
--
Compound: CCOc1cc2ncc(C#N)c(Nc3ccc(OCc4ccncc4)c(Cl)c3)c2cc1NC(=O)CCCN(C)C [Example 50]
pIC50: 5.00 to 6.00

Summary for this compound, CCOc1cc2ncc(C#N)c(Nc3ccc(OCc4ncccc4CC)c(Cl)c3)c2cc1NC(=O)CCCN(C)C [Example 45] : pIC50 is > 7.00

Summary for this compound, CCOc1cc2ncc(C#N)c(Nc3ccc(OCc4cc(C#N)ccn4)c(Cl)c3)c2cc1NC(=O)CCCN(C)C [Example 36] : pIC50 is 6.00 to 7.00

Summary for this compound, CCOc1cc2ncc(C#N)c(Nc3ccc(OCc4ncccc4C)cc3C)c2cc1NC(=O)/C=C/CN(C)C [Example 93] : pIC50 is > 7.00

Summary for this compound, CCOc1cc2ncc(C#N)c(Nc3ccc(OCc4cccnc4)c(Cl)c3)c2cc1NC(=O)CCCN(C)C [Example 49] : pIC50 is 5.00 to 6.00

* * *

Some molecules, each annotated with its measured pIC50.
Test target: MST1 (Homo sapiens (Human), UniProt Q13043)
Test: MST1 biochemical LanthaScreen Eu Kinase Binding Assay
Study conditions: read-out: Kinase Binding assay-MST1 IC50
pIC50: −log10 of the molar value.

Please review the entries below; each comes with its answer.
Smiles: CCOc1cc2ncc(C#N)c(Nc3ccc(OCc4cc5ncccc5o4)c(Cl)c3)c2cc1NC(=O)CCCN(C)C
pIC50: 6.00 to 7.00

Smiles: CCOc1cc2ncc(C#N)c(Nc3ccc(OCc4ccccn4)c(Cl)c3)c2cc1NC(=O)CCCOC
pIC50: 6.00 to 7.00

Smiles: CCOc1cc2ncc(C#N)c(Nc3ccc(OCc4cnc5cccnc5c4)c(Cl)c3)c2cc1NC(=O)CCCN(C)C
pIC50: 6.00 to 7.00

Smiles: CCOc1cc2ncc(C#N)c(Nc3ccc(OCc4cc(C)ccn4)c(Cl)c3)c2cc1NC(=O)CCCN(C)C
pIC50: > 7.00

Smiles: CCOc1cc2ncc(C#N)c(Nc3ccc(OCc4ncccc4CO)cc3Cl)c2cc1NC(=O)CCCN(C)C
pIC50: > 7.00

Summary for this molecule, CCOc1cc2ncc(C#N)c(Nc3ccc(OCCn4ccc(C)n4)c(Cl)c3)c2cc1NC(=O)CCCN(C)C : pIC50 is 6.00 to 7.00

Summary for this molecule, CCOc1cc2ncc(C#N)c(Nc3ccc(OCc4ccc(C)cn4)c(Cl)c3)c2cc1NC(=O)CCCN(C)C : pIC50 is 6.00 to 7.00

Summary for this molecule, CCOc1cc2ncc(C#N)c(Nc3ccccc3F)c2cc1NC(C)=O : pIC50 is 6.00 to 7.00

Summary for this molecule, CCOc1cc2ncc(C#N)c(Nc3ccc(OCc4cccc(C#N)n4)c(Cl)c3)c2cc1NC(=O)CCCN(C)C : pIC50 is > 7.00

Summary for this molecule, CCOc1cc2ncc(C#N)c(Nc3cccc(Cl)c3)c2cc1NC(C)=O : pIC50 is > 7.00

Summary for this molecule, CCOc1cc2ncc(C#N)c(Nc3ccc(OCc4ccccn4)c(Cl)c3)c2cc1NC(=O)CCCN1CCN(C)CC1 : pIC50 is > 7.00

Summary for this molecule, CCOc1cc2ncc(C#N)c(Nc3ccc(OCc4ncc(C)o4)c(Cl)c3)c2cc1NC(=O)CCCN(C)C : pIC50 is > 7.00

Summary for this molecule, CCOc1cc2ncc(C#N)c(Nc3ccc(CCc4ccccn4)c(Cl)c3)c2cc1NC(=O)CCCN(C)C : pIC50 is 6.00 to 7.00

Summary for this molecule, CCOc1cc2ncc(C#N)c(Nc3ccc(OCc4nc5ccccc5nc4C)c(Cl)c3)c2cc1NC(=O)CCCN(C)C : pIC50 is > 7.00

Summary for this molecule, CCOc1cc2ncc(C#N)c(Nc3ccc(OCc4ncccc4C)c(OC(F)(F)F)c3)c2cc1NC(=O)CCCN(C)C : pIC50 is 6.00 to 7.00

Summary for this molecule, CCOc1cc2ncc(C#N)c(Nc3ccc(OCCCn4cncn4)c(Cl)c3)c2cc1NC(=O)CCCN(C)C : pIC50 is 5.00 to 6.00

Summary for this molecule, CCOc1cc2ncc(C#N)c(Nc3ccc(OCc4ncccc4C)c(OC)c3)c2cc1NC(=O)CCCN(C)C : pIC50 is > 7.00

* * *

Some compounds, each annotated with its measured IC50.
Test target: MST1 (Homo sapiens (Human))
Test: MST1 biochemical LanthaScreen Eu Kinase Binding Assay
Study conditions: read-out: Kinase Binding assay-MST1 IC50

Smiles: CCOc1cc2ncc(C#N)c(Nc3ccc(OCc4ncccc4C)cc3Br)c2cc1NC(=O)CCCN(C)C
Data value: < 100 nM
//
Smiles: CCOc1cc2ncc(C#N)c(Nc3ccc(OCc4ccccn4)c(Cl)c3)c2cc1NC(C)=O
Data value: < 100 nM

Summary for this compound, CCOc1cc2ncc(C#N)c(Nc3ccc(OCc4ncccc4C)c(Cl)c3)c2cc1NC(=O)/C=C/CN(C)C : IC50 is < 100 nM

Summary for this compound, CCOc1cc2ncc(C#N)c(Nc3ccc(OCc4ncccc4C(F)(F)F)c(Cl)c3)c2cc1NC(=O)CCCN(C)C : IC50 is < 100 nM

Summary for this compound, CCOc1cc2ncc(C#N)c(Nc3ccc(C#N)cc3)c2cc1NC(C)=O : IC50 is 1000 to 10000 nM

Summary for this compound, CCOc1cc2ncc(C#N)c(Nc3ccc(OCc4cccnn4)c(Cl)c3)c2cc1NC(=O)CCCN(C)C : IC50 is 100 to 1000 nM

Summary for this compound, CCOc1cc2ncc(C#N)c(Nc3ccc(OCc4cc(Cl)ccn4)c(Cl)c3)c2cc1NC(=O)CCCN(C)C : IC50 is < 100 nM

Summary for this compound, CCOc1cc2ncc(C#N)c(Nc3ccc(OCc4ccn(C)n4)c(Cl)c3)c2cc1NC(=O)CCCN(C)C : IC50 is 100 to 1000 nM

Summary for this compound, CCOc1cc2ncc(C#N)c(Nc3ccc(OCc4ccccc4)c(Cl)c3)c2cc1NC(=O)CCCN(C)C : IC50 is 100 to 1000 nM

Summary for this compound, CCOc1cc2ncc(C#N)c(Nc3ccc(OCc4ncccc4C)cc3C)c2cc1NC(=O)CCCN(C)C : IC50 is < 100 nM

Summary for this compound, CCOc1cc2ncc(C#N)c(Nc3cc(Cl)c(OCc4ncccc4C)cc3Br)c2cc1NC(=O)CCCN(C)C : IC50 is < 100 nM

Summary for this compound, CCOc1cc2ncc(C#N)c(Nc3ccc(OCc4ncccc4Br)c(Cl)c3)c2cc1NC(=O)CCCN(C)C : IC50 is < 100 nM

Summary for this compound, CCOc1cc2ncc(C#N)c(Nc3ccc(OCc4ccccn4)c(Cl)c3)c2cc1NC(=O)CCCN1CCCC1 : IC50 is < 100 nM

Summary for this compound, CCOc1cc2ncc(C#N)c(Nc3ccc(OCc4cccnc4)cc3)c2cc1NC(=O)CCCN(C)C : IC50 is 1000 to 10000 nM

* * *

Test target: MST1 (Homo sapiens (Human), UniProt Q13043)
Test: MST1 biochemical LanthaScreen Eu Kinase Binding Assay
Study conditions: read-out: Kinase Binding assay-MST1 IC50
pIC50: −log10 of the molar value.
Property label: pIC50

Please review the entries below; each comes with its answer.
Compound: CCOc1cc2ncc(C#N)c(N(C)c3ccccc3)c2cc1NC(C)=O [Example 116]
Test target: MST1 (Homo sapiens (Human), UniProt Q13043)
pIC50: 5.00 to 6.00
--
Compound: CCOc1ccc(COc2ccc(Nc3c(C#N)cnc4cc(OCC)c(NC(=O)CCCN(C)C)cc34)cc2Cl)nc1 [Example 57]
Test target: MST1 (Homo sapiens (Human), UniProt Q13043)
pIC50: 6.00 to 7.00
--
Compound: CCOc1cc2ncc(C#N)c(Nc3ccc(OCc4ncccc4C)c(Cl)c3)c2cc1NC(C)=O [Example 84]
Test target: MST1 (Homo sapiens (Human), UniProt Q13043)
pIC50: > 7.00
--
Compound: CCOc1cc2ncc(C#N)c(Nc3ccc(OCc4nc(Br)ccc4C)c(Cl)c3)c2cc1NC(=O)CCCN(C)C [Example 76]
Test target: MST1 (Homo sapiens (Human), UniProt Q13043)
pIC50: > 7.00

// compound CCOc1cc2ncc(C#N)c(Nc3ccc(OCc4ccccn4)c(Cl)c3)c2cc1NC(=O)CCCN1CCOCC1 [Example 99] , assay MST1 (Homo sapiens (Human), UniProt Q13043), pIC50 value: 6.00 to 7.00

// compound CCOc1cc2ncc(C#N)c(Nc3ccc(OCc4ncccc4C)c(F)c3)c2cc1NC(=O)CCCN(C)C [Example 22] , assay MST1 (Homo sapiens (Human), UniProt Q13043), pIC50 value: > 7.00

// compound CCOc1cc2ncc(C#N)c(Nc3ccc(OCc4ccccn4)c(Cl)c3)c2cc1NC(=O)CC [Example 101] , assay MST1 (Homo sapiens (Human), UniProt Q13043), pIC50 value: 5.00 to 6.00

// compound CCOc1cc2ncc(C#N)c(Nc3ccc(OCc4ccccn4)c(C)c3)c2cc1NC(=O)CCCN(C)C [Example 48] , assay MST1 (Homo sapiens (Human), UniProt Q13043), pIC50 value: 6.00 to 7.00

// compound CCOc1cc2ncc(C#N)c(Nc3ccc(C)cc3)c2cc1NC(C)=O [Example 120] , assay MST1 (Homo sapiens (Human), UniProt Q13043), pIC50 value: 6.00 to 7.00
